MEASURED_ON: T1, HCV Core1-169 (hepatitis C virus (HCV-1), UniProt P26664 1-169)
T1 sequence: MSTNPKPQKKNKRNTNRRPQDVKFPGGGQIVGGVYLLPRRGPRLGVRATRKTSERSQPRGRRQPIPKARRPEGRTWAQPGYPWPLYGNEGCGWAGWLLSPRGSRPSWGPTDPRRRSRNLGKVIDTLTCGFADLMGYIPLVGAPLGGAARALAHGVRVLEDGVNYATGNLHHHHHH
TEST_METHOD_NOTES: SPR sandwich, capture mAb C11-9
ASSAY_ENDPOINT: expected percent binding (%)
Response body: numeric value in %, unit text excluded.

# lookup: expected percent binding of HCV 208B-556 (antibody, V domains shown) VH: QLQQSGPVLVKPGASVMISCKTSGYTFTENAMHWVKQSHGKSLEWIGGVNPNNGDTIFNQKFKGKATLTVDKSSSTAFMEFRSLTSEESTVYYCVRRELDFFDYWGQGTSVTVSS VL: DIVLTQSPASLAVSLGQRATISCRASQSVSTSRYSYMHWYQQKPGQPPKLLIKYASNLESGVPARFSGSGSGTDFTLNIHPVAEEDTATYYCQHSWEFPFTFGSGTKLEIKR
8.3
